PBM binding z-score listing for selected sequences.
Tested on: LXRb:RXRa (NR concentration 270 nM, RXRa partner concentration 90 nM)
PROTOCOL_DESCRIPTION: PBM binding z-score (relative to random genomic background probes); higher = stronger binding; sequences stand for … in GC…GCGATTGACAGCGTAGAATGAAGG
MEASUREMENT_KIND: PBM binding z-score

>  <ITEM_SEQUENCE>
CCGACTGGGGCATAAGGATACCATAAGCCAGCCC

>  <VALUE_OBSERVED>
-0.813

$$$$
>  <ITEM_SEQUENCE>
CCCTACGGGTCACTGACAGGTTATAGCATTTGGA

>  <VALUE_OBSERVED>
3.53

$$$$
>  <ITEM_SEQUENCE>
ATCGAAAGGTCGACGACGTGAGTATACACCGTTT

>  <VALUE_OBSERVED>
2.61

$$$$
>  <ITEM_SEQUENCE>
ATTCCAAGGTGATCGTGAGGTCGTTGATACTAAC

>  <VALUE_OBSERVED>
1.23

$$$$
>  <ITEM_SEQUENCE>
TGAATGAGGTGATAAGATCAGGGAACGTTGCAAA

>  <VALUE_OBSERVED>
-0.155

$$$$
>  <ITEM_SEQUENCE>
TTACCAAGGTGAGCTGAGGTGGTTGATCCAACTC

>  <VALUE_OBSERVED>
-0.761

$$$$
>  <ITEM_SEQUENCE>
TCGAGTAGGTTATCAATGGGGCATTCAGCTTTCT

>  <VALUE_OBSERVED>
1.05

$$$$
>  <ITEM_SEQUENCE>
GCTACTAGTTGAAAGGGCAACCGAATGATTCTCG

>  <VALUE_OBSERVED>
0.754

$$$$
>  <ITEM_SEQUENCE>
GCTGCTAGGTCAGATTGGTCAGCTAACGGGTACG

>  <VALUE_OBSERVED>
0.562

$$$$
>  <ITEM_SEQUENCE>
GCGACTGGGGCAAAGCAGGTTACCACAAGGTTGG

>  <VALUE_OBSERVED>
0.204

$$$$
>  <ITEM_SEQUENCE>
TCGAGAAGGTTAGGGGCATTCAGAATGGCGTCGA

>  <VALUE_OBSERVED>
1.38

$$$$
>  <ITEM_SEQUENCE>
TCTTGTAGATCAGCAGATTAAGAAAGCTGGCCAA

>  <VALUE_OBSERVED>
-0.134

$$$$
>  <ITEM_SEQUENCE>
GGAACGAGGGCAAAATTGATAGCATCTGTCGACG

>  <VALUE_OBSERVED>
0.129

$$$$
>  <ITEM_SEQUENCE>
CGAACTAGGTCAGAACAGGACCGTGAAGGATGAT

>  <VALUE_OBSERVED>
0.148

$$$$
>  <ITEM_SEQUENCE>
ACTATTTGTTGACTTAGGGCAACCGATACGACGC

>  <VALUE_OBSERVED>
0.344

$$$$
>  <ITEM_SEQUENCE>
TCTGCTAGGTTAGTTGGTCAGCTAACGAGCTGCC

>  <VALUE_OBSERVED>
-0.708

$$$$
>  <ITEM_SEQUENCE>
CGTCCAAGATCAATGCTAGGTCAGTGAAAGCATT

>  <VALUE_OBSERVED>
0.371

$$$$
>  <ITEM_SEQUENCE>
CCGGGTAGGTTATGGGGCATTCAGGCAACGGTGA

>  <VALUE_OBSERVED>
0.904

$$$$
>  <ITEM_SEQUENCE>
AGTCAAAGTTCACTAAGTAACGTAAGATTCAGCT

>  <VALUE_OBSERVED>
3.15

$$$$
>  <ITEM_SEQUENCE>
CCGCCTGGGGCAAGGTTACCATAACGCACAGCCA

>  <VALUE_OBSERVED>
0.56

$$$$
>  <ITEM_SEQUENCE>
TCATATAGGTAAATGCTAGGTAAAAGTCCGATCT

>  <VALUE_OBSERVED>
0.888

$$$$
>  <ITEM_SEQUENCE>
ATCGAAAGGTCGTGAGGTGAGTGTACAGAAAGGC

>  <VALUE_OBSERVED>
3.06

$$$$
>  <ITEM_SEQUENCE>
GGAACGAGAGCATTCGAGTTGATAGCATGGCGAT

>  <VALUE_OBSERVED>
-1.11

$$$$
>  <ITEM_SEQUENCE>
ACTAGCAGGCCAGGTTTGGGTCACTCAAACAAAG

>  <VALUE_OBSERVED>
0.269

$$$$
>  <ITEM_SEQUENCE>
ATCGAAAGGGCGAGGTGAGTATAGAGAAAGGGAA

>  <VALUE_OBSERVED>
0.463

$$$$
>  <ITEM_SEQUENCE>
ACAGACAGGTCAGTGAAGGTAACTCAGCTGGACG

>  <VALUE_OBSERVED>
1.07

$$$$

Each recorded value in this set is attributed to the supplement of paper PMC6555819.
